// data source = paper PMC4858740

- assayedTarget: T1, CD45RO ECD (human)
- T1 chain: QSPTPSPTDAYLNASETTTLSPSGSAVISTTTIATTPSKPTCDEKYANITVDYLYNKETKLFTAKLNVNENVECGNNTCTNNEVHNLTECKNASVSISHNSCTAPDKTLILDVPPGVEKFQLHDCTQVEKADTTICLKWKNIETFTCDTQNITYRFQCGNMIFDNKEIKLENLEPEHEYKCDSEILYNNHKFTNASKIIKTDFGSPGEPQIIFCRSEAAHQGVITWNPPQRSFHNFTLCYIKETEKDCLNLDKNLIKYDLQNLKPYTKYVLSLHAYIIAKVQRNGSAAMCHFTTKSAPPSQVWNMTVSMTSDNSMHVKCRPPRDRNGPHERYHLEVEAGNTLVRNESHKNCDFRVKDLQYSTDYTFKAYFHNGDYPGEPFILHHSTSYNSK
- methodNotes: SPR
Kindly supply the reported pKd values for the records listed here.
Just the number, please; pKd means minus log10 of the concentration in mol/L.

Sample HAdV-D47 E3/49K (Fc fusion) EAETVIVDVKSGTNHTLEGPRKTPVQWYGGADFIMYCNGSKIHHKELNHTCSIQNITLTFINRTHHGTYYGFASDNQNSKVYHVRVDLEPPRPRATLAPPQDITIKYGSNRTLQGPNVTPVSWYDGEGNRFCDGDEIDHPELNHTCNAQNLTLLFVNETHERTYYGVSGDWKQRNEYDVTVIKTQNHKNAMQQKVEQKVEQKPSKRPKQKTLQTTIQVTIPIGSNYTLVGPSPPVSWHTTKNGLTELCNGNPILRHTCDGQNITLINVNATFEADYYGSNNNSESKHYRVKVFKQRKDQALLFRPLTTKGTTGGSTVNEQFALQQGNDKTNQNDEQIPSTT — what was its pKd?
11.00

Sample HAdV-D39 E3/49K (Fc fusion) KIDNEDVIGHWGKNITLVGPPEKPIEWHGPRVQLCDGSKILHPEFNHTCNEQNLTLIFLNNSFNGKYYGIRKDGFGMKQYTLKVIAPKASTRRPLSPPQQIDVRMGQNVTLVGPVDTPVNWHGPKHELCRGSQVIHPEVNHTCNEQNLTLLFVNYTFWGAYLGFNRYGTDRVHYEVTIIDGFKNAGQQKDETGQHNPSNKDRPNPKVKNPQRTKNTHKTNTQNKKDIEKDFRKGTNQTLVGPPGSKVDWYEGKNGDLVKLCDGKSGLKVSCNDQNITLINVNETYSGTYYGSNDEDHRQYKVTVYTIPRNETVKIQPHTTKGTTGGSTVNEQFALQQDNDRTNQNDEQIPSTT — what was its pKd?
9.41

Sample HAdV-D43 E3/49K (Fc fusion) QIEHEKQSVQWGKNITLVGPNDKPVEWHGPRDQLCKGKQILHPEFNHTCNEQNLTLLFVNNTFQGIYYGIRNDGRGMKQIQLTVVAPPASTRKPLSKPKQVNVQYGHNVTLEGPPGIPIDWLGPTNQLCKGKEILHPEINHTCNVQNLTLLFVNYTHRGAYFGFNKDGTDRHHYEVTILDGFTNAGQTKEESVSDKSKGKTSSKEKKTQKNNSQRNDDVKELDFPSGSNQTLVGPPGSKVDWYTTKNGDFTKLCDGLNGPKNLCNYQNLTLRNVSRQDEGTYFGSNEQSKHYRVTVYTKPRNQTKRIQPYTTKGTTKSTLGNHSFELQLADDQSNQQDQQIPSTT — what was its pKd?
9.42

Sample HAdV-D19a E3/49K (Fc fusion) GFHTINATWWANITLVGPPDTPVTWYDTQGLWFCNGSRVKNPQIRHTCNDQNLTLIHVNKTYERTYMGYNRQGTKKEDYKVVVIPPPPATVKPQPEPEYVFVYMGENKTLEGPPGTPVTWFNQDGKKFCEGEKVLHPEFNHTCDKQNLILLFVNFTHDGAYLGYNHQGTQRTHYEVTVLDLFPDSGQMKIENHSEETEQKNDEHHNWQKQGGQKQGGQKTNQTKVNDRRKTAQKRPSKLKPATIEAMLVTVTAGSNLTLVGPKAEGKVTWFDGDLKRPCEPNYRLRHECNNQNLTLINVTKDYEGTYYGTNDKDEGKRYRVKVNTTNSQSVKIQPYTRQTTPDQEHKFELQFETNGNYDSKIPSTT — what was its pKd?
10.22
